Where these numbers come from: patent US4606860A

Biological target: aldose reductase (Rattus norvegicus, UniProt P07943)
Construct: the supernatant was used as the crude enzyme solution
Assay: Aldose reductase inhibiting activity (crude enzyme from rat lens, NADPH absorbance at 340 nm)
Details: DL-glyceraldehyde 10 mM, NADPH 0.104 mM, pH 6.2, Table 4, read-out: IC50 (50% inhibition concentration), aldose reductase
Reported log10 IC50 values follow for various molecules
Reported endpoint: log10 IC50 (log10 of the value in nM)

| Smi | log10 IC50 |
| --- | --- |
| Cc1cccc(NC=C2SC(=S)N(CC(=O)O)C2=O)c1 | 1.56 |
| CNC=C1SC(=S)N(CC(=O)O)C1=O | 3.11 |
| O=C(O)CN1C(=O)C(=CN2CCOCC2)SC1=S | 2.53 |
| CC(C)CNC=C1SC(=S)N(CC(=O)O)C1=O | 2.78 |
| COc1ccccc1NC=C1SC(=S)N(CC(=O)O)C1=O | 1.70 |

====

Quick reference for log10(IC50) among some compounds
Target: aldose reductase (Rattus norvegicus)
Construct: the supernatant was used as the crude enzyme solution
Test: Aldose reductase inhibiting activity (crude enzyme from rat lens, NADPH absorbance at 340 nm)
Settings: DL-glyceraldehyde 10 mM, NADPH 0.104 mM, pH 6.2, Table 4, read-out: IC50 (50% inhibition concentration), aldose reductase
Reported endpoint: log10(IC50) (log10 of the value in nM)

| Compound | Reported endpoint | Observed result |
| --- | --- | --- |
| O=C(O)CN1C(=O)C(=CNc2ccccc2-c2ccccc2)SC1=S [Compound No. 15] | log10(IC50) | 2.18 |
| CN1CCCN(C=C2SC(=S)N(CC(=O)O)C2=O)CC1 [Compound No. 14] | log10(IC50) | 3.11 |
| CN(C)C=C1SC(=S)N(CC(=O)O)C1=O [Compound No. 2] | log10(IC50) | 2.81 |
| O=C(O)CN1C(=O)C(=CNCCO)SC1=S [Compound No. 3] | log10(IC50) | 2.85 |
| CN1CCN(C=C2SC(=S)N(CC(=O)O)C2=O)CC1 [Compound No. 13] | log10(IC50) | 2.30 |
| C=CCNC=C1SC(=S)N(CC(=O)O)C1=O [Compound No. 4] | log10(IC50) | 2.48 |
| O=C(O)CN1C(=O)C(=CNc2cccc(Cl)c2)SC1=S [Compound No. 9] | log10(IC50) | 1.36 |
| O=C(O)CN1C(=O)C(=CNc2ccc(Br)cc2)SC1=S [Compound No. 10] | log10(IC50) | 1.70 |
| CCCCCCNC=C1SC(=S)N(CC(=O)O)C1=O [Compound No. 6] | log10(IC50) | 2.45 |
| COc1cccc(NC=C2SC(=S)N(CC(=O)O)C2=O)c1 [Compound No. 7] | log10(IC50) | 1.41 |

====

Tested on: thrombin-induced aggregation of washed rabbit platelets
Assay: Platelet aggregation inhibiting activity (thrombin-stimulated washed rabbit platelets, aggregometer)
Type: cell-based, rabbit (albino, white local breed)
Details: Oryctolagus cuniculus, Platelet; washed rabbit platelets; read-out: concentration inhibiting thrombin-induced aggregation by 50%

| Smi | IC50 [µM] |
| --- | --- |
| COc1ccccc1NC=C1SC(=S)N(CC(=O)O)C1=O | 300 |
| O=C(O)CN1C(=O)C(=CNc2ccc(Br)cc2)SC1=S | 300 |
| Cc1cccc(NC=C2SC(=S)N(CC(=O)O)C2=O)c1 | 300 |
| COc1cccc(NC=C2SC(=S)N(CC(=O)O)C2=O)c1 | 300 |
| O=C(O)CN1C(=O)C(=CNc2cccc(Cl)c2)SC1=S | 300 |
